TARGET OF ASSAY: CDC2L2 (human) (UniProt Q9UQ88)
Sequence (Q9UQ88 whole entry, looked up): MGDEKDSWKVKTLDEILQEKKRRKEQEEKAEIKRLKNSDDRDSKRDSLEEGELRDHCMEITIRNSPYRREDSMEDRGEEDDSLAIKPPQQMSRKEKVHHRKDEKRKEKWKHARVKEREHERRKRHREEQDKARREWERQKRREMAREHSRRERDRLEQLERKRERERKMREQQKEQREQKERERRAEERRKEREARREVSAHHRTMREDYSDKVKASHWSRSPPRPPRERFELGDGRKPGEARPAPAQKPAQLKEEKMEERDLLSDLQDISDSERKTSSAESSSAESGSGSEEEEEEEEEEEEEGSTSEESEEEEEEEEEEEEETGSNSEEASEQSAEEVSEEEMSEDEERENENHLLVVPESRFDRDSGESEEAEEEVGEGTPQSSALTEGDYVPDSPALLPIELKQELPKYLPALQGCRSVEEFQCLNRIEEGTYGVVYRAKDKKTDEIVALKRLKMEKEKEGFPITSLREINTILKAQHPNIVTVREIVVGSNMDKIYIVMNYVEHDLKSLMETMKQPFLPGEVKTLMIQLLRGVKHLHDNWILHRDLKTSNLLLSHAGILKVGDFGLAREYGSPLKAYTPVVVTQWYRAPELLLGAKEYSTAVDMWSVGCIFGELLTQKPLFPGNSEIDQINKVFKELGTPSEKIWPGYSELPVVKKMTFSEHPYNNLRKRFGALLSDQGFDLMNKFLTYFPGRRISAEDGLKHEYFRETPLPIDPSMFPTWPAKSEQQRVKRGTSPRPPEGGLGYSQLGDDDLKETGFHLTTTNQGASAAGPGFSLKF
TEST DESCRIPTION: KINOMEscan competition binding
EXPERIMENTAL CONTEXT: compound 10.0 µM
TEST READOUT: kinase still bound, per cent of control (%)
The answer is to be given in %; state only the numeric part.

Fill blank: measured kinase still bound, per cent of control of the compound N#Cc1c(NC(=O)c2cccc3ccccc23)sc2c1CCCC2 is ____.
100

Fill blank: measured kinase still bound, per cent of control of the compound Cc1cc([C@@H](C)Nc2ccccc2C(=O)O)c2nc(N3CCOCC3)cc(=O)n2c1 is ____.
100

Fill blank: measured kinase still bound, per cent of control of the compound Cn1c(=O)n(-c2ccc(C(C)(C)C#N)cc2)c2c3cc(-c4cnc5ccccc5c4)ccc3ncc21 is ____.
100

Fill blank: measured kinase still bound, per cent of control of the compound O=C(NOC[C@H](O)CO)c1ccc(F)c(F)c1Nc1ccc(I)cc1F is ____.
100

Fill blank: measured kinase still bound, per cent of control of the compound CC[C@@H]1C(=O)N(C)c2cnc(Nc3ccc(C(=O)NC4CCN(C)CC4)cc3OC)nc2N1C1CCCC1 is ____.
100

Fill blank: measured kinase still bound, per cent of control of the compound OCCCNc1cc(-c2ccnc(Nc3cccc(Cl)c3)n2)ccn1 is ____.
100

Fill blank: measured kinase still bound, per cent of control of the compound C=CC(=O)Nc1cc(NC(=O)c2ccc(C)c(NC(=O)c3ccno3)c2)cc(C(F)(F)F)c1 is ____.
94

Fill blank: measured kinase still bound, per cent of control of the compound O=C(O)c1ccc(Nc2ncc3c(n2)-c2ccc(Cl)cc2C(c2c(F)cccc2F)=NC3)cc1 is ____.
100

Fill blank: measured kinase still bound, per cent of control of the compound COc1cc(C(=O)NC2CCN(C)CC2)ccc1Nc1ncc2c(n1)N(C1CCCC1)CCC(=O)N2C(C)C is ____.
100

Fill blank: measured kinase still bound, per cent of control of the compound C[C@@H](Oc1cc(-n2cnc3ccc(CN4CCN(C)CC4)cc32)sc1C(N)=O)c1ccccc1C(F)(F)F is ____.
100

Fill blank: measured kinase still bound, per cent of control of the compound CCOc1cc2ncc(C#N)c(Nc3ccc(OCc4ccccn4)c(Cl)c3)c2cc1NC(=O)/C=C/CN(C)C is ____.
100

Fill blank: measured kinase still bound, per cent of control of the compound O=C(NC1CC1)c1cccc(-c2ccc3c(NC(=O)C4CC4)n[nH]c3c2)c1 is ____.
85

Fill blank: measured kinase still bound, per cent of control of the compound O=C1Nc2ccc(I)cc2/C1=C/c1cc(Br)c(O)c(Br)c1 is ____.
73

Fill blank: measured kinase still bound, per cent of control of the compound CN(C)C/C=C/C(=O)Nc1cccc(Nc2ncc3c(n2)N(C)c2ccccc2C(=O)N3C)c1 is ____.
100

Fill blank: measured kinase still bound, per cent of control of the compound CCN1CCN(Cc2ccc(Nc3ncc4c(n3)N(C)c3ccccc3C(=O)N4C)cc2C(F)(F)F)CC1 is ____.
97

Fill blank: measured kinase still bound, per cent of control of the compound COc1cc(C(=O)NC2CCN(C)CC2)ccc1Nc1ncc2c(n1)N(C1CCCC1)C(C)CC(=O)N2C (centres undefined) is ____.
100

Fill blank: measured kinase still bound, per cent of control of the compound Nc1ccc(-c2ccc3ncc4ccc(=O)n(-c5cccc(C(F)(F)F)c5)c4c3c2)cn1 is ____.
98

Fill blank: measured kinase still bound, per cent of control of the compound C=CC(=O)Nc1cccc(Oc2nc(Nc3ccc(N4CCN(C)CC4)cc3OC)ncc2Cl)c1 is ____.
100

Fill blank: measured kinase still bound, per cent of control of the compound Cc1ccc(NC(=O)c2cccc(C(C)(C)C#N)c2)cc1Nc1ccc2ncn(C)c(=O)c2c1 is ____.
5.4

* * *

TARGET OF ASSAY: UniProt:Q16659
Sequence (Q16659 whole entry, looked up): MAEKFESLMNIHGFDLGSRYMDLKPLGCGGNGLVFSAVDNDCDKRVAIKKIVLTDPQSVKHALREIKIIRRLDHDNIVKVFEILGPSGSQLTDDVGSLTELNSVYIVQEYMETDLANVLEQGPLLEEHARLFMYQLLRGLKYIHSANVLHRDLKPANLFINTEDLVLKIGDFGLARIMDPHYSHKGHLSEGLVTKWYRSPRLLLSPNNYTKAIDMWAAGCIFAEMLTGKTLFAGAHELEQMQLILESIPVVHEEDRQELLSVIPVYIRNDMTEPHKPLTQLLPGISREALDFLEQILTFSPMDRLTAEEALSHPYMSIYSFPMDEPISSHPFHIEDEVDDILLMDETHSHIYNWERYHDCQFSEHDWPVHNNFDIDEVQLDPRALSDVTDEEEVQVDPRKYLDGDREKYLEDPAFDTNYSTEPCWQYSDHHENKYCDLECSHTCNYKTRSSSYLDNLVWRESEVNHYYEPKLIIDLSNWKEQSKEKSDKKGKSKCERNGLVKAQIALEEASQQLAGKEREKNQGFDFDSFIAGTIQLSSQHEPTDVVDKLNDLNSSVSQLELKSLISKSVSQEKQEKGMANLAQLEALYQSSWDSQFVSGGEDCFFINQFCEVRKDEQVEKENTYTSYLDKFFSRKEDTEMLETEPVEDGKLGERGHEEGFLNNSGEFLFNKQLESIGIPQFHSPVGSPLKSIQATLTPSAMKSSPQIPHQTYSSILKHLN
TEST DESCRIPTION: KINOMEscan competition binding
EXPERIMENTAL CONTEXT: compound 10.0 µM
Please provide measured kinase still bound, per cent of control for the entries that follow.
The answer is to be given in %; state only the numeric part.

Fill blank: measured kinase still bound, per cent of control of the molecule C=CC(=O)Nc1cccc(Nc2nc(N[C@H]3CC[C@H](N(C)C)CC3)nc3c2ncn3C(C)C)c1 is ____.
100

Fill blank: measured kinase still bound, per cent of control of the molecule C[C@@H](Oc1cc(-n2cnc3ccc(CN4CCN(C)CC4)cc32)sc1C(N)=O)c1ccccc1C(F)(F)F is ____.
100

Fill blank: measured kinase still bound, per cent of control of the molecule CC[C@@H]1C(=O)N(C)c2cnc(Nc3ccc(C(=O)NC4CCN(C)CC4)cc3OC)nc2N1C1CCCC1 is ____.
100

Fill blank: measured kinase still bound, per cent of control of the molecule COc1cc(C(=O)NC2CCN(C)CC2)ccc1Nc1ncc2c(n1)N(C1CCCC1)CCC(=O)N2C(C)C is ____.
100

Fill blank: measured kinase still bound, per cent of control of the molecule Cc1ccc(C(=O)Nc2cccc(C(F)(F)F)c2)cc1Nc1cncc(C(N)=O)c1 is ____.
100

Fill blank: measured kinase still bound, per cent of control of the molecule CCCS(=O)(=O)Nc1ccc(F)c(C(=O)c2c[nH]c3ncc(-c4ccc(Cl)cc4)cc23)c1F is ____.
100

Fill blank: measured kinase still bound, per cent of control of the molecule OCCCNc1cc(-c2ccnc(Nc3cccc(Cl)c3)n2)ccn1 is ____.
100

Fill blank: measured kinase still bound, per cent of control of the molecule CCN1CCN(Cc2ccc(Nc3ncc4c(n3)N(C)c3ccccc3C(=O)N4C)cc2C(F)(F)F)CC1 is ____.
20

Fill blank: measured kinase still bound, per cent of control of the molecule C=CC(=O)Nc1cccc(Oc2nc(Nc3ccc(N4CCN(C)CC4)cc3OC)ncc2Cl)c1 is ____.
100

Fill blank: measured kinase still bound, per cent of control of the molecule O=C1Nc2ccc(I)cc2/C1=C/c1cc(Br)c(O)c(Br)c1 is ____.
100

Fill blank: measured kinase still bound, per cent of control of the molecule Cn1c(=O)n(-c2ccc(C(C)(C)C#N)cc2)c2c3cc(-c4cnc5ccccc5c4)ccc3ncc21 is ____.
100

Fill blank: measured kinase still bound, per cent of control of the molecule COc1cc(N2CCN(C)CC2)ccc1Nc1nc(N)c(C(=O)c2c(Cl)cccc2Cl)s1 is ____.
100

Fill blank: measured kinase still bound, per cent of control of the molecule Nc1ccc(-c2ccc3ncc4ccc(=O)n(-c5cccc(C(F)(F)F)c5)c4c3c2)cn1 is ____.
62

Fill blank: measured kinase still bound, per cent of control of the molecule CN(C)C/C=C/C(=O)Nc1cccc(Nc2ncc3c(n2)N(C)c2ccccc2C(=O)N3C)c1 is ____.
46

Fill blank: measured kinase still bound, per cent of control of the molecule CCC(=O)N1CCN(c2ccc(-n3c(=O)ccc4cnc5ccc(-c6cnc7ccccc7c6)cc5c43)cc2C(F)(F)F)CC1 is ____.
1.8

* * *

TARGET OF ASSAY: PIK3CD (human) (UniProt O00329)
Sequence (O00329 whole entry, looked up): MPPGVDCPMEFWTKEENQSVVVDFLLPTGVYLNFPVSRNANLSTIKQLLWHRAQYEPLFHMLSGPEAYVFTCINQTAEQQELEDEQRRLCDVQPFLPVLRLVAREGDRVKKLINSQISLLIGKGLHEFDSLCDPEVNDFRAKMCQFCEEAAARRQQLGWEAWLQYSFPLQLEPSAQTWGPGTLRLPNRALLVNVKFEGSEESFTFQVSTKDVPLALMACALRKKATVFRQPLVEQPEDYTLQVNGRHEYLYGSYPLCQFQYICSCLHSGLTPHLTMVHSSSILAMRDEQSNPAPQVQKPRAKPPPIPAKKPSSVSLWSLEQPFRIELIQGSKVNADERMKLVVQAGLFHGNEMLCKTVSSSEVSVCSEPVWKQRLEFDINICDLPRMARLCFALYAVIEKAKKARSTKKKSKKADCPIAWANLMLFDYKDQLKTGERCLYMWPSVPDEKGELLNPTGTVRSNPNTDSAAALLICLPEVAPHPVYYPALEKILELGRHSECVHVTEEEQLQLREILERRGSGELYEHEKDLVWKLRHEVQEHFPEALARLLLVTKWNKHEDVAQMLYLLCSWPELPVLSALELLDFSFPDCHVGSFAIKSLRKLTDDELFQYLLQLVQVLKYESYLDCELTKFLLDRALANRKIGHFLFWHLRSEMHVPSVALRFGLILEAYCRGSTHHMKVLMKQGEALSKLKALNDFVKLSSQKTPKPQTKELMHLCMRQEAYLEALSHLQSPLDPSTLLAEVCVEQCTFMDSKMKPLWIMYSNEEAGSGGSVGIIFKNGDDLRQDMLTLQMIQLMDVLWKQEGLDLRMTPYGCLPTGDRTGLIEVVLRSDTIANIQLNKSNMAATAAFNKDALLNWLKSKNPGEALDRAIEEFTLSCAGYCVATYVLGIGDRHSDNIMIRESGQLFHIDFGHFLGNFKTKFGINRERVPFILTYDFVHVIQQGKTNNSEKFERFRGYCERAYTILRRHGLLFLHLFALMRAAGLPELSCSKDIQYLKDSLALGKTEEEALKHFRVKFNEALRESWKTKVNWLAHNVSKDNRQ
TEST DESCRIPTION: KINOMEscan competition binding
EXPERIMENTAL CONTEXT: compound 10.0 µM
TEST READOUT: kinase still bound, per cent of control (%)
The answer is to be given in %; state only the numeric part.

Fill blank: measured kinase still bound, per cent of control of the compound O=C(O)c1ccc(Nc2ncc3c(n2)-c2ccc(Cl)cc2C(c2c(F)cccc2F)=NC3)cc1 is ____.
88

Fill blank: measured kinase still bound, per cent of control of the compound Cn1c(=O)n(-c2ccc(C(C)(C)C#N)cc2)c2c3cc(-c4cnc5ccccc5c4)ccc3ncc21 is ____.
7.2

Fill blank: measured kinase still bound, per cent of control of the compound C=CC(=O)Nc1cccc(Nc2nc(N[C@H]3CC[C@H](N(C)C)CC3)nc3c2ncn3C(C)C)c1 is ____.
92

Fill blank: measured kinase still bound, per cent of control of the compound COc1cc(C(=O)NC2CCN(C)CC2)ccc1Nc1ncc2c(n1)N(C1CCCC1)CCC(=O)N2C(C)C is ____.
100

Fill blank: measured kinase still bound, per cent of control of the compound CCCS(=O)(=O)Nc1ccc(F)c(C(=O)c2c[nH]c3ncc(-c4ccc(Cl)cc4)cc23)c1F is ____.
89

Fill blank: measured kinase still bound, per cent of control of the compound Nc1ccc(-c2ccc3ncc4ccc(=O)n(-c5cccc(C(F)(F)F)c5)c4c3c2)cn1 is ____.
14

Fill blank: measured kinase still bound, per cent of control of the compound Cc1ccc(C(=O)Nc2cccc(C(F)(F)F)c2)cc1Nc1cncc(C(N)=O)c1 is ____.
100

Fill blank: measured kinase still bound, per cent of control of the compound Cc1ccc2nc(NCCN)c3ncc(C)n3c2c1 is ____.
99

Fill blank: measured kinase still bound, per cent of control of the compound C[C@@H](Oc1cc(-n2cnc3ccc(CN4CCN(C)CC4)cc32)sc1C(N)=O)c1ccccc1C(F)(F)F is ____.
14
